Item-by-item account of one-hybrid fitness for binding parS DNA
B1: Caulobacter ParB omega fusion; a variant is named by its letters at X, in order, B8GW30 (parent)
chain: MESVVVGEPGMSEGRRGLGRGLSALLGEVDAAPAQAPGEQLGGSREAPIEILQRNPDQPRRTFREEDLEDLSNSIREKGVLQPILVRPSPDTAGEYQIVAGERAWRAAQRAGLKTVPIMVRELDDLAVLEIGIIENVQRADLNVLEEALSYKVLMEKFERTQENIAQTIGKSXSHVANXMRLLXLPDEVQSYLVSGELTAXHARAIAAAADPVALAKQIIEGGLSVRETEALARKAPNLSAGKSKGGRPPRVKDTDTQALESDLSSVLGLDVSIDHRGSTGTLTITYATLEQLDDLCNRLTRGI

# Variants of: B1
# assay-summary: one-hybrid fitness for binding parS DNA (scaled: cognate 1, non-cognate 0); higher = stronger binding
# details: with parS DNA site
In all, about 81,000 sequences were measured (“one-hybrid fitness for binding parS DNA”: median about -0.17, highest 2% from about 0.51 on). What follows is part of a selection rich in the highest values, with near analogues and random picks from the rest.
assay-metric: one-hybrid fitness for binding parS DNA

INSERT INTO results (sequence_change, test_value) VALUES
  ('YVNR', '≤ 0.2'),
  ('PAYG', '≤ 0.2'),
  ('GTMC', '≤ 0.2'),
  ('GPRL', '≤ 0.2'),
  ('RRQC', 0.63),
  ('RCQC', 0.994),
  ('EYFS', '≤ 0.2'),
  ('RGIS', 0.524),
  ('NTKG', '≤ 0.2'),
  ('HGNW', '≤ 0.2'),
  ('RLQQ', '≤ 0.2'),
  ('RGIH', '≤ 0.2'),
  ('RGHT', 0.519),
  ('RGSS', 0.849),
  ('IVAE', '≤ 0.2'),
  ('YHLN', '≤ 0.2'),
  ('RGSD', '≤ 0.2'),
  ('RLQY', 0.495),
  ('RDQC', '≤ 0.2'),
  ('RMQF', '≤ 0.2'),
  ('RMQC', 1.02),
  ('RPQC', '≤ 0.2');
